meta.source: patent US10479784B2

- Target of assay: full-length ATR (Homo sapiens (Human), UniProt Q13535)
- Sequence (Q13535 whole entry): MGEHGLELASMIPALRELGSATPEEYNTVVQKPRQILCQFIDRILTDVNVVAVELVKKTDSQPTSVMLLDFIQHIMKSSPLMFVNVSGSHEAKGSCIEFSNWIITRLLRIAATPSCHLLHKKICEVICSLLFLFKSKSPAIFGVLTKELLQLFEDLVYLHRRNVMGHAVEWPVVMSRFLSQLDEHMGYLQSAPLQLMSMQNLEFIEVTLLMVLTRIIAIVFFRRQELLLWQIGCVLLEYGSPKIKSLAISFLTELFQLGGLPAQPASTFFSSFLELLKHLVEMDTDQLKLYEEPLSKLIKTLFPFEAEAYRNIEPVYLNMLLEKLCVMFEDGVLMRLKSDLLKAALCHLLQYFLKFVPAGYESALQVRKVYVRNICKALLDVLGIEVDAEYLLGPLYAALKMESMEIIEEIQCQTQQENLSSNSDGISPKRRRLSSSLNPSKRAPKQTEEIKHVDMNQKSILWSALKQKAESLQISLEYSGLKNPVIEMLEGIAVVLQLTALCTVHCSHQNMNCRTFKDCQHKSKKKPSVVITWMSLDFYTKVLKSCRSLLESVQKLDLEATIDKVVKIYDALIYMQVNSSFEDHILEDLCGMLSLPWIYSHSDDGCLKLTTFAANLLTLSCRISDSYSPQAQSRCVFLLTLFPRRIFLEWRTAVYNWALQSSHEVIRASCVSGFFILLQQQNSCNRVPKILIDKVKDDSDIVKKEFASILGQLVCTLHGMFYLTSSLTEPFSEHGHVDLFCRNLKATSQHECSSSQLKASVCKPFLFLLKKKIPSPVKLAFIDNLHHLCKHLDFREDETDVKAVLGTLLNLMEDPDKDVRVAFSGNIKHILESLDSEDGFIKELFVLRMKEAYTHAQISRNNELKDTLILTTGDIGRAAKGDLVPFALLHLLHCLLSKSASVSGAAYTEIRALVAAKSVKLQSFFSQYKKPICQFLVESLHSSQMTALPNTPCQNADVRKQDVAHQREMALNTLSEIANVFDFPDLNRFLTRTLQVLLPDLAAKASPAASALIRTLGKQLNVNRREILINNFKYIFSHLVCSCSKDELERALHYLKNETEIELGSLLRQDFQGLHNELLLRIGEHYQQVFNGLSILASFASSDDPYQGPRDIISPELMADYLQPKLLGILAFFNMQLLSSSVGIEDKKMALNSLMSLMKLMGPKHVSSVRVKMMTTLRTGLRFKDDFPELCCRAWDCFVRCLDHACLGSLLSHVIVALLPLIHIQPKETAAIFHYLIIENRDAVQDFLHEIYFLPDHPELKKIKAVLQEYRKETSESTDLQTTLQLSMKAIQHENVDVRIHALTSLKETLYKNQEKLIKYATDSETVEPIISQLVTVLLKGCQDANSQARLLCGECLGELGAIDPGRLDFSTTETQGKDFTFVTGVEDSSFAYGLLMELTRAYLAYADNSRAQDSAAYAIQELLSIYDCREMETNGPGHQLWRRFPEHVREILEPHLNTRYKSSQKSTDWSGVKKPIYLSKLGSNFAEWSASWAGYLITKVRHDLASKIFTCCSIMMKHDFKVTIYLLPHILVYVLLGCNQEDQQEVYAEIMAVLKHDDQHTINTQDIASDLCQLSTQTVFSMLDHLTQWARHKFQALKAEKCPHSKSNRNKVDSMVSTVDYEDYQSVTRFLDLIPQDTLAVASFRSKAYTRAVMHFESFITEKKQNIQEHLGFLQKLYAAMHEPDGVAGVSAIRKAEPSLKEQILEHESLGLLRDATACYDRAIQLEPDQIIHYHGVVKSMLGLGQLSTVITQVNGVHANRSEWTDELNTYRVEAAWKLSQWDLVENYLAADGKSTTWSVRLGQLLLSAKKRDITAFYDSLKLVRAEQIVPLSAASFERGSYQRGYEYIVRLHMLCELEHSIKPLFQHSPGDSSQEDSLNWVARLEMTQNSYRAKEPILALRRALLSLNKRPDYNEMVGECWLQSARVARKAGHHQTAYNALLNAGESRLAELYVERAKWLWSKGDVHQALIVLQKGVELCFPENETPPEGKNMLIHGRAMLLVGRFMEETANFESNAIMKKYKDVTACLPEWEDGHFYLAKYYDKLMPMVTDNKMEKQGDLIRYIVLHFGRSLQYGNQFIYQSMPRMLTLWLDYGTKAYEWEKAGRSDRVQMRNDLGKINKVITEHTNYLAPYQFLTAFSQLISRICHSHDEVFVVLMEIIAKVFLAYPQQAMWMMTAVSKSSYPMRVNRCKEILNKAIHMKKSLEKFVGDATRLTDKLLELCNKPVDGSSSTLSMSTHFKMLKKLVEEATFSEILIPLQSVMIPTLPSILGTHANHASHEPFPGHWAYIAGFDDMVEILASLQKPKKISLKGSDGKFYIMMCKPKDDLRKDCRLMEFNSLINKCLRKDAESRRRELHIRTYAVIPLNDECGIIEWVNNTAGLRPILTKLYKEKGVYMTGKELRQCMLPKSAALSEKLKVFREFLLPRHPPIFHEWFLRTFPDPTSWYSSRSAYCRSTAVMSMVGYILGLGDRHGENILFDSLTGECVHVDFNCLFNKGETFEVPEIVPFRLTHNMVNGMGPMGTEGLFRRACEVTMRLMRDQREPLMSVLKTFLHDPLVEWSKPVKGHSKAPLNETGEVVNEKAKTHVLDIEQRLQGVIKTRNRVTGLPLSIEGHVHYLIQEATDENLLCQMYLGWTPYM
- Test protocol: ATR Inhibition Assay (radioactive-phosphate incorporation)
- Type: biochemical
- Cond: read-out: ATR Ki
Assay readout: Ki

Below, 8 molecules whose answers are already recorded.
| Molecule | Target of assay | Ki |
| --- | --- | --- |
| CCOC(=O)N1CCN(C(=O)c2ccc(-c3cnc(N)c(-c4nnc(-c5ccccc5)o4)n3)cc2)CC1 [IA-11] | full-length ATR (Homo sapiens (Human), UniProt Q13535) | 10 to 100 nM |
| Nc1ncc(-c2ccc3[nH]ncc3c2)nc1C(=O)Nc1ccccc1 [Compound I-39] | full-length ATR (Homo sapiens (Human), UniProt Q13535) | 10 to 100 nM |
| CN(C)C(=O)c1ccc(-c2cnc(N)c(-c3nnc(-c4cccc(N)c4)o3)n2)cc1 [IA-142] | full-length ATR (Homo sapiens (Human), UniProt Q13535) | ≤ 10 nM |
| Cn1c(NC(=O)c2nc(-c3ccc(C(=O)N4CCCNCC4)cc3)cnc2N)nc2ccccc21 [Compound V-7] | full-length ATR (Homo sapiens (Human), UniProt Q13535) | 100 to 5000 nM |
| CS(=O)(=O)Nc1cccc(-c2cnc(N)c(C(=O)Nc3ccccc3)n2)c1 [Compound I-25] | full-length ATR (Homo sapiens (Human), UniProt Q13535) | 10 to 100 nM |
| CNCc1csc(-c2nnc(-c3nc(-c4ccc(S(=O)(=O)C(C)C)cc4)cnc3N)o2)c1 [IA-226] | full-length ATR (Homo sapiens (Human), UniProt Q13535) | ≤ 10 nM |
| CS(=O)(=O)c1ccc(-c2cnc(N)c(-c3noc(-c4ccccc4)n3)n2)cc1 [Compound I-144] | full-length ATR (Homo sapiens (Human), UniProt Q13535) | ≤ 10 nM |
| CN(C)C(=O)c1ccc(-c2cnc(N)c(-c3nnc(-c4ccccc4F)o3)n2)cc1 [IA-30] | full-length ATR (Homo sapiens (Human), UniProt Q13535) | ≤ 10 nM |

Exercise: So what does the record say about Ki for CC(C)NCc1ccc(-c2cc(-c3nc(-c4ccc(S(=O)(=O)C(C)C)cc4)cnc3N)on2)cc1 [IIA-8] ?
Solution: ≤ 10 nM

Exercise: Also CN(C)CCOc1cc(-c2cnc(N)c(-c3nnc(-c4ccccc4)o3)n2)ccn1 [IA-165] , if possible.
Solution: 10 to 100 nM

Exercise: And what about the molecule CC(C)S(=O)(=O)c1ccc(-c2cnc(N)c(-c3nnc(NC(=O)[C@@H]4CCCN4)o3)n2)cc1 [IA-217] ?
Solution: 100 to 5000 nM

Exercise: Next: CCSc1ccccc1-c1cnc(N)c(-c2nnc(-c3ccccc3)o2)n1 [IA-184]
Solution: 10 to 100 nM

Exercise: Again, but for Nc1ncc(-c2cccc3ncccc23)nc1-c1nnc(-c2ccccc2)o1 [IA-260]
Solution: 10 to 100 nM

Exercise: Next up: Nc1ncc(-c2ccnc(N3CCNCC3)c2)nc1-c1nc2ccccc2[nH]1 [Compound I-136]
Solution: 100 to 5000 nM

Exercise: And CC(C)S(=O)(=O)c1ccc(-c2cnc(N)c(-c3nnc(NC(=O)CN)o3)n2)cc1 [IA-82] ?
Solution: 100 to 5000 nM

Exercise: Now try Nc1ncc(-c2cccnc2)nc1C(=O)Nc1ccc2cc[nH]c2c1 [Compound I-105] .
Solution: 10 to 100 nM

Exercise: Try this molecule next: CC(O)CNCc1ccc(-c2cc(-c3nc(-c4ccc(S(=O)(=O)C(C)C)cc4)cnc3N)on2)cc1 (stereo not shown) [IIA-11]
Solution: ≤ 10 nM

Exercise: Try this molecule too: CC(C)S(=O)(=O)c1ccc(-c2cnc(N)c(-c3nnc(CCCN)o3)n2)cc1 [IA-91]
Solution: 100 to 5000 nM

Exercise: Can you handle CN(C)C1CCN(C(=O)c2ccc(-c3cnc(N)c(-c4nnc(-c5ccccc5)o4)n3)cc2F)CC1 [IA-4] next?
Solution: ≤ 10 nM

Exercise: Same thing, different molecule: CS(=O)(=O)c1ccc(-c2cnc(N)c(-c3nc4cccnc4[nH]3)n2)cc1 [Compound I-112]
Solution: ≤ 10 nM

Exercise: Query Nc1ncc(-c2ccccc2C(F)(F)F)nc1C(=O)Nc1ccccc1 [Compound I-6] next
Solution: 100 to 5000 nM

Exercise: Now try CC(C)S(=O)(=O)c1ccc(-c2cnc(N)c(-c3nnc(-c4cccc(C5CCCN5)c4)o3)n2)cc1 (stereo not shown) [IA-84] .
Solution: ≤ 10 nM

Exercise: How about Cc1ccsc1-c1nnc(-c2nc(-c3ccc(S(=O)(=O)CCN(C)C)cc3)cnc2N)o1 [IA-269] ?
Solution: ≤ 10 nM
